The values you see were collected from patent US11318134B2.

target_system: Bcl-XL (Homo sapiens (Human), UniProt Q07817)
Sequence (Q07817 whole entry): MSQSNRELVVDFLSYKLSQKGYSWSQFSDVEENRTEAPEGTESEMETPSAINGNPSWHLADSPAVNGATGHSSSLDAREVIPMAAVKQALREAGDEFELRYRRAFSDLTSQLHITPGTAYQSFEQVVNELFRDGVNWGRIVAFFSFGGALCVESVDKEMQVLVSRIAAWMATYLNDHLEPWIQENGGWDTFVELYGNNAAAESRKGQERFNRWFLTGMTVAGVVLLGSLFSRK
assay_details: Bcl-XL HTRF assay (FAM-Bad peptide)
Assay type: binding
run_parameters: HTRF, 3 nM Bcl-XL, 40 nM FAM-Bad peptide; read-out: Bc1-XL IC50
quantity: IC50

Consider CC1(C)CCC(CN2CCN(c3ccc(C(=O)NS(=O)(=O)c4ccc(N[C@H](CCN5CCNCC5)CSc5ccccc5)c(S(=O)(=O)C(F)(F)F)c4)cc3)CC2)=C(C23CC(C(F)F)(C2)C3)C1 . Its measured IC50 is ≤ 10 nM

Consider CC1(C)CCC(CN2CCN(c3ccc(C(=O)NS(=O)(=O)c4ccc(NC[C@H]5CC[C@](C)(O)CC5)c([N+](=O)[O-])c4)c(Oc4cnc5[nH]ccc5c4)c3)CC2)=C(C23CC(C)(C2)C3)C1 . Its measured IC50 is ≥ 100 nM

Consider CC1(C)CCC(CN2CCN(c3ccc(C(=O)NS(=O)(=O)c4ccc(N[C@H](CCN5CCC(O)CC5)CSc5ccccc5)c(S(=O)(=O)C(F)(F)F)c4)cc3)CC2)=C(C23CC(C(F)F)(C2)C3)C1 . Its measured IC50 is ≤ 10 nM

###

pKd: −log10 of the molar value.
quantity: pKd

Record CCC12CC(C3=C(CN4CCN(c5ccc(C(=O)NS(=O)(=O)c6ccc(NC[C@H]7CC[C@](C)(O)CC7)c([N+](=O)[O-])c6)c(Oc6cnc7[nH]ccc7c6)c5)CC4)CCC(C)(C)C3)(C1)C2 has Bcl-2 (Homo sapiens (Human), UniProt P10415) pKd equal to > 8.00

Record CN1CCC(F)(CNc2ccc(S(=O)(=O)NC(=O)c3ccc(N4CCN(CC5=C(C67CC(C(F)F)(C6)C7)CC(C)(C)CC5)CC4)cc3Oc3cnc4[nH]ccc4c3)cc2[N+](=O)[O-])CC1 has Bcl-2 (Homo sapiens (Human), UniProt P10415) pKd equal to > 8.00

Record CC1(C)CCC(CN2CCN(c3ccc(C(=O)NS(=O)(=O)c4ccc(NC[C@H]5CC[C@](C)(O)CC5)c([N+](=O)[O-])c4)c(Oc4cnc5[nH]ccc5c4)c3)CC2)=C(C23CC(C)(C2)C3)C1 has Bcl-2 (Homo sapiens (Human), UniProt P10415) pKd equal to > 8.00

Record CC(C)C12CC(C3=C(CN4CCN(c5ccc(C(=O)NS(=O)(=O)c6ccc(NCC7CCOCC7)c([N+](=O)[O-])c6)c(Oc6cnc7[nH]ccc7c6)c5)CC4)CCC(C)(C)C3)(C1)C2 has Bcl-2 (Homo sapiens (Human), UniProt P10415) pKd equal to 7.00 to 8.00

Record CCC12CC(C3=C(CN4CCN(c5ccc(C(=O)NS(=O)(=O)c6ccc(NCC7CCOCC7)c([N+](=O)[O-])c6)c(Oc6cnc7[nH]ccc7c6)c5)CC4)CCC(C)(C)C3)(C1)C2 has Bcl-2 (Homo sapiens (Human), UniProt P10415) pKd equal to > 8.00

Record CC1(C)CCC(CN2CCN(c3ccc(C(=O)NS(=O)(=O)c4ccc(NCC5CCOCC5)c([N+](=O)[O-])c4)c(Oc4cnc5[nH]ccc5c4)c3)CC2)=C(C23CC(F)(C2)C3)C1 has Bcl-2 (Homo sapiens (Human), UniProt P10415) pKd equal to > 8.00

Record CC1(C)CCC(CN2CCN(c3ccc(C(=O)NS(=O)(=O)c4ccc(NCC5(F)CCOCC5)c([N+](=O)[O-])c4)c(Oc4cnc5[nH]ccc5c4)c3)CC2)=C(C23CC(C(F)F)(C2)C3)C1 has Bcl-2 (Homo sapiens (Human), UniProt P10415) pKd equal to > 8.00

Record CC1(C)CCC(CN2CCN(c3ccc(C(=O)NS(=O)(=O)c4ccc(NCC5CCOCC5)c([N+](=O)[O-])c4)c(Oc4cnc5[nH]ccc5c4)c3)CC2)=C(C23CC(C(F)F)(C2)C3)C1 has Bcl-2 (Homo sapiens (Human), UniProt P10415) pKd equal to > 8.00

Record CCC12CC(C3=C(CN4CCN(c5ccc(C(=O)NS(=O)(=O)c6ccc(NCC7(F)CCOCC7)c([N+](=O)[O-])c6)c(Oc6cnc7[nH]ccc7c6)c5)CC4)CCC(C)(C)C3)(C1)C2 has Bcl-2 (Homo sapiens (Human), UniProt P10415) pKd equal to > 8.00

Record CC1(C)CCC(CN2CCN(c3ccc(C(=O)NS(=O)(=O)c4ccc(NCC5(F)CCOCC5)c([N+](=O)[O-])c4)c(Oc4cnc5[nH]ccc5c4)c3)CC2)=C(C23CC(C)(C2)C3)C1 has Bcl-2 (Homo sapiens (Human), UniProt P10415) pKd equal to > 8.00

Record CCC12CC(C3=C(CN4CCN(c5ccc(C(=O)NS(=O)(=O)c6ccc(OCC7(F)CCOCC7)c([N+](=O)[O-])c6)c(Oc6cnc7[nH]ccc7c6)c5)CC4)CCC(C)(C)C3)(C1)C2 has Bcl-2 (Homo sapiens (Human), UniProt P10415) pKd equal to > 8.00

Record CC1(C)CCC(CN2CCN(c3ccc(C(=O)NS(=O)(=O)c4ccc(NCC5CC6(CCOCC6)C5)c([N+](=O)[O-])c4)c(Oc4cnc5[nH]ccc5c4)c3)CC2)=C(C23CC(C)(C2)C3)C1 has Bcl-2 (Homo sapiens (Human), UniProt P10415) pKd equal to > 8.00
